System: COLO 205 colon
Assay: NCI-60 one-dose screen, 48 h
Details: 10 µM unless noted
Description: Cells are grown in 96 well plates and exposed to the test compound for 48 hours. Compounds are tested at a single concentration, which is 10^-5 M for most compounds. The reported endpoint is percent growth (GI% or GIPRCNT), where numbers from 0 - 100% represent growth inhibition, and numbers from -100% - 0 represent cell death. For example, a value of 40 represents 60% growth inhibition. A value of 0 means no net growth occurred over the course of the experiment. […]
The panel holds about 83,000 compounds, 20% with a hit somewhere; the sample as a whole holds those more often. Calls of active or inactive are those of the source. The calls were made as follows: active = growth percent below 10; inactive = the rest.
Possible outcomes: Y = active, N = inactive

COMPOUND: ClC(Cl)c1nc(-c2ccco2)n2nc(-c3ccccc3)cc2n1
CLASS NAME: Y
--
COMPOUND: COC(=O)C[Se]C(=O)Cc1c(C)n(C(=O)c2ccc(Cl)cc2)c2ccc(OC)cc12
CLASS NAME: N
--
COMPOUND: COc1cc(-c2nn(C(C)(C)C)cc2-c2ccnc(NCCCNS(=O)(=O)c3ccccc3)n2)ccc1Cl
CLASS NAME: N
--
COMPOUND: NC(=O)c1cccc(C#CCNC[C@H]2C[C@@H](n3ccc4c(Cl)ncnc43)[C@H](O)[C@@H]2O)c1
CLASS NAME: N
--
COMPOUND: CC1=NC2=NC(=O)/C(=C3/N=C(C)C=C(c4ccccc4)N3N)NN2C(c2ccccc2)=C1
CLASS NAME: N
--
COMPOUND: CC(C)(C)c1ccc(-c2nnc(-c3nc4ccccc4nc3Cl)o2)cc1
CLASS NAME: N
--
COMPOUND: Cc1cc(C(NC(=O)CCCCCNc2cccc3c2C(=O)N(C2CCC(=O)NC2=O)C3=O)c2ccc3c(c2)OC(F)(F)O3)c(O)c2ncccc12 (centres undefined)
CLASS NAME: N
--
COMPOUND: CCn1c(SCC(=O)Nc2cccc(C(=O)/C=C/c3ccc(C)cc3)c2)nc2ccccc2c1=O
CLASS NAME: N
--
COMPOUND: COc1ccc(NC(=O)Nc2ccc3c(ccn3C(=O)c3cccc(F)c3)c2)cc1
CLASS NAME: N

Data credit: PubChem BioAssay (NCI)
